Before we begin, note that these log10 IC50 values for Prostaglandin G/H synthase 1 (Homo sapiens) originate from several publications.
propertyMeasured: log10 IC50 (log10 of the value in µM)

compound	numericReadout
C=C1CCC[C@]2(C)CC[C@@H]([C@@](C)(O)CO)C[C@@]12O	1.59
Cc1ccccc1C1CC(c2ccc(Cl)c(Cl)c2)=NN1C1=NC(=O)CS1 (stereo not given)	1.66
NS(=O)(=O)c1ccc(N2N=C(C(F)(F)F)CC2c2ccc3c(c2)OCO3)cc1 (stereo not given)	1.28
CC(C)=CCn1ncc(-c2ccc(S(C)(=O)=O)cc2)c(-c2ccc(F)cc2)c1=O	0.48
CC1=NN(c2ccccc2)C(=O)/C1=N/Nc1cccc(-c2nc3ccccc3s2)c1	0.98
CCCCC1SC(c2cccc(Oc3ccccc3)c2)N(CCCCc2ccc(C(=O)OCC)cc2)C1=O (stereo not given)	0.45
COc1ccc2oc(=O)cc(CSc3nnc(CSc4nc5ccccc5o4)o3)c2c1	2.36
CS(=O)(=O)Nc1ccncc1Oc1ccccc1	-0.39
